# Lookup of reported residual activity keyed by entry
biological target: HIPK3 (human) (UniProt Q9H422); assay: radiometric filter-binding kinase assay, Kinase HotSpot; details: compound 0.5 µM; ATP 10 µM
Sequence (Q9H422 whole entry, looked up): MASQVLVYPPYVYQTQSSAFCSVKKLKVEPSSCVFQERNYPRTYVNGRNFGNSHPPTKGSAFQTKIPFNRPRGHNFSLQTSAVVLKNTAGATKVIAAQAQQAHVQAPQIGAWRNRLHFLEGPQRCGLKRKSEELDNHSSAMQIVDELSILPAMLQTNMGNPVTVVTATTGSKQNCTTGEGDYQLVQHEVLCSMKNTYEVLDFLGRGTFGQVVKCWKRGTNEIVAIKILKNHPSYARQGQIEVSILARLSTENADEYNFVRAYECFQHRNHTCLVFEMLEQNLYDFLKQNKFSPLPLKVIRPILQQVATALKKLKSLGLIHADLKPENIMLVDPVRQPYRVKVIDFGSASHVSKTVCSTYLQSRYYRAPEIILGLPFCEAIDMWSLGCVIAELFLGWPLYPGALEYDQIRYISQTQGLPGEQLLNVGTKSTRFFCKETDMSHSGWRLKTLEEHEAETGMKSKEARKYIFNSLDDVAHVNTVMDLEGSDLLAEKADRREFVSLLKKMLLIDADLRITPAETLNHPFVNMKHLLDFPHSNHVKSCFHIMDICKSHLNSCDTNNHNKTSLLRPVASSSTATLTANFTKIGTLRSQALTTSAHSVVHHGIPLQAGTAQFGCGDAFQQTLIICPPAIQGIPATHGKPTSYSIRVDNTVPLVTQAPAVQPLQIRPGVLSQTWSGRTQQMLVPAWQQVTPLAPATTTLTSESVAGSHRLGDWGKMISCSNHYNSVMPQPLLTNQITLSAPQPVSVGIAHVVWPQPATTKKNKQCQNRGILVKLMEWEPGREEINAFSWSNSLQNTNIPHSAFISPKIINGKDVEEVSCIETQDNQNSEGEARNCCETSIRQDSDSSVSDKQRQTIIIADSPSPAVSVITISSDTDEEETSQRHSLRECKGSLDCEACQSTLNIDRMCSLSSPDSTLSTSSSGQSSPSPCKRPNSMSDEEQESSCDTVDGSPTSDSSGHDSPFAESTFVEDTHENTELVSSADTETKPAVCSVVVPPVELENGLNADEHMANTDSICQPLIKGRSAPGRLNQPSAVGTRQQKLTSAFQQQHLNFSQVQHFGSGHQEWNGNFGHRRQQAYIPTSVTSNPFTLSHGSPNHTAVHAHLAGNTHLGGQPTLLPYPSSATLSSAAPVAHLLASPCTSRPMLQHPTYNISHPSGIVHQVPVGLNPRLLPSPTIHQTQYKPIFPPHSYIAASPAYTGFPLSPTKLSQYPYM
Give the value in % but do not write % after it.

Check out these entries, answers already filled in.
{"columns": ["smiles", "residual activity / %"],
 "data": [
  ["CO[C@@H]1[C@H](N(C)C(=O)c2ccccc2)C[C@H]2O[C@]1(C)n1c3ccccc3c3c4c(c5c6ccccc6n2c5c31)C(=O)NC4", 93.3],
  ["O=C1NC(=O)c2c1c1c3ccccc3[nH]c1n1cncc21", 66.9],
  ["Ic1cccc(CSc2nnc(-c3ccncc3)o2)c1", 99.1],
  ["CN(C)CCCn1cc(C2=C(c3c[nH]c4ccccc34)C(=O)NC2=O)c2ccccc21", 102],
  ["O=C1Nc2ccc(Br)cc2/C1=C\\c1cc2c([nH]1)CCCC2", 96.7],
  ["c1ccc2c(-c3ccncc3)c[nH]c2c1", 107]
]}

// recorded residual activity for `COc1cc(Nc2c(C#N)cnc3cc(OCCCN4CCN(C)CC4)c(OC)cc23)c(Cl)cc1Cl` : 93.5

// recorded residual activity for `O=C1C(Cl)=C(N2C(=O)CCC2=O)C(=O)c2ccccc21` : 112

###

biological target: RIPK2 (human); assay: radiometric filter-binding kinase assay, Kinase HotSpot; conditions: compound 0.5 µM; ATP 10 µM
assay_readout: residual activity (%)
Give the value in % but do not write % after it.

{"columns": ["smiles", "unit", "quantitative_result"],
 "data": [
  ["Fc1ccc(-c2nc3n(c2-c2ccncc2)CCS3)cc1", "%", 84.7],
  ["N#Cc1c[nH]c2c[nH]/c(=N\\Cc3cccnc3)cc2/c1=N\\c1ccc(F)c(Cl)c1", "%", 85.3],
  ["COc1ccc(S(=O)(=O)N(CCO)c2ccccc2CN(C)C/C=C/c2ccc(Cl)cc2)cc1", "%", 87],
  ["COc1cc2ncnc(Nc3ccc(OCc4ccccc4)cc3)c2cc1OC", "%", 61.6],
  ["CN(C)CCCn1cc(C2=C(c3c[nH]c4ccccc34)C(=O)NC2=O)c2ccccc21", "%", 87.7]
]}

// recorded residual activity for `Cn1c2ccccc2c2c3c(c4c5ccccc5n(CCC#N)c4c21)CNC3=O` : 55.1

// recorded residual activity for `COc1ccc(Cl)cc1NC(=O)Nc1cc(C)nc2ccccc12` : 82.7

// recorded residual activity for `CCCCc1c(-c2ccc(OC)cc2)[nH]c2nccnc12` : 71

// recorded residual activity for `O=C1C(Cl)=C(N2C(=O)CCC2=O)C(=O)c2ccccc21` : 84.8

// recorded residual activity for `CC(C)(C)c1cc(C=C(C#N)C#N)cc(Br)c1O` : 32.8

// recorded residual activity for `O=C1NC(=O)c2c1c1c3ccccc3[nH]c1n1cncc21` : 67.5

// recorded residual activity for `COc1cc2ncnc(Nc3ccc(Oc4ccccc4)cc3)c2cc1OC` : 55.5

// recorded residual activity for `COc1ccc2c(c1)/C(=C/c1cnc[nH]1)C(O)=N2` : 90

// recorded residual activity for `CN(C)S(=O)(=O)c1ccc2c(c1)/C(=C/c1cc3c([nH]1)CCCC3)C(=O)N2` : 88.9

// recorded residual activity for `N#C/C(=C\c1ccc(O)c(O)c1)C(=O)NCc1ccccc1` : 101

// recorded residual activity for `COc1ccc(C(=O)Nc2sc3c(c2C(N)=O)CCCC3)cc1OC` : 76.5

// recorded residual activity for `Ic1cccc(CSc2nnc(-c3ccncc3)o2)c1` : 86.3

// recorded residual activity for `Cc1nc(-c2ccccc2)c(-c2ccncc2)o1` : 87.4

// recorded residual activity for `CO[C@@H]1[C@H](N(C)C(=O)c2ccccc2)C[C@H]2O[C@]1(C)n1c3ccccc3c3c4c(c5c6ccccc6n2c5c31)C(=O)NC4` : 82.8

// recorded residual activity for `NC(=O)c1cccc(-c2cc(Nc3ccc(OC(F)(F)F)cc3)ncn2)c1` : 89.3

// recorded residual activity for `C[C@@H]1CCN(C(=O)CC#N)C[C@@H]1N(C)c1ncnc2[nH]ccc12` : 113

// recorded residual activity for `Cc1cccc(-c2nc(C(C)(C)C)[nH]c2-c2ccc3c(c2)OCO3)n1` : 79
